Hi there, I'd appreciate the recorded EC50 for every entry that follows.
Test system: VEGFR2
protocol_notes: EC50 of VEGFR2 siRNA candidates before and after modification, knockdown in cells
Format: cell-based, human
test_context: PANC-1 cells, 24 h, 24well; read-out: EC50 (nM, 24 h, 24well) Pancreatic cancer PANC-1
Oligonucleotides are written 5' to 3', each unit as a sugar letter and its base; * is a phosphorothioate linkage, no mark a phosphodiester; rarer units and linkages stand in square brackets, end groups in braces. Plain capitals give the bases only. {P} = phosphorylation (indicated by P); d = 2'-deoxy (DNA); m = 2'-O-methyl; r = 2'-OH (RNA); f = 2'-fluoro
One number for each entry, in nM.

VEGFR2-21-h5#mod: Modified (2′F, 2′OME, phosphorylation) siRNA targeting VEGFR2; sense SEQ ID 137, antisense SEQ ID 145 (sense mGmCmAmUmCmAfGfCfAmUmAmAmGmAmAmAmCmUmUdTdT; antisense {P}-mAfAmGmUmUmUmCmUmUmAmUmGmCfUmGmAmUmGmCdTdT): 0.22
VEGFR2-21-hm18# mod: Modified (2′F, 2′OME, phosphorylation) siRNA targeting VEGFR2; sense SEQ ID 136, antisense SEQ ID 144 (sense mGmGmAmAmAmAfAfAfCmAmAmAmAmCmUmGmUmAmAdTdT; antisense {P}-mUfUmAmCmAmGmUmUmUmUmGmUmUfUmUmUmUmCmCdTdT): 0.06
VEGFR2-25-h3#: siRNA targeting VEGFR2 mRNA; sense SEQ ID 43, antisense SEQ ID 86 (sense GACCAACAUGGAGUCGUGUACAUUA; antisense UAAUGUACACGACUCCAUGUUGGUC; RNA, backbone not given here): 0.35
VEGFR2-21-h7#: siRNA targeting VEGFR2 mRNA; sense SEQ ID 66, antisense SEQ ID 109 (sense GCUGACAUGUACGGUCUAUTT; antisense AUAGACCGUACAUGUCAGCTT; sugars from the 5' end r19 d2, backbone not given here): 3
VEGFR2-25-h4#: siRNA targeting VEGFR2 mRNA; sense SEQ ID 44, antisense SEQ ID 87 (sense CCCUUGAGUCCAAUCACACAAUUAA; antisense UUAAUUGUGUGAUUGGACUCAAGGG; RNA, backbone not given here): 0.13
VEGFR2-21-h2#: siRNA targeting VEGFR2 mRNA; sense SEQ ID 61, antisense SEQ ID 104 (sense GGUCCAUUUCAAAUCUCAATT; antisense UUGAGAUUUGAAAUGGACCTT; sugars from the 5' end r19 d2, backbone not given here): 0.36

(Q) Tell me measured EC50 for VEGFR2-21-h1#mod: Modified (2′F, 2′OME, phosphorylation) siRNA targeting VEGFR2; sense SEQ ID 131, antisense SEQ ID 139 (sense mGmCmCmUmAmGfUfGfUmUmUmCmUmCmUmUmGmAmUdTdT; antisense {P}-mAfUmCmAmAmGmAmGmAmAmAmCmAfCmUmAmGmGmCdTdT) please.
(A) 0.07
